Recorded logP by entry
MEASURE: logP

>  <MOLECULE>
Cc1ncc2c(c1O)COC2c1ccc(Cl)cc1 (centres undefined)

>  <READOUT_VALUE>
2.34

$$$$
>  <MOLECULE>
CC(C)(C)c1ccc(C(O)CCCN2CCC(C(O)c3ccccc3)CC2)cc1 (centres undefined)

>  <READOUT_VALUE>
4.06

$$$$
>  <MOLECULE>
O=C(CCCN1CCC(C(O)(c2ccccc2)c2ccccc2)CC1)c1ccccc1

>  <READOUT_VALUE>
4.42

$$$$
>  <MOLECULE>
Cc1ccc(Cc2cnc(NCCCCc3ncc(Br)cc3C)[nH]c2=O)cn1

>  <READOUT_VALUE>
3.19

$$$$
